Molecular target: 3-oxoacyl-[acyl-carrier-protein] synthase 3 (Escherichia coli)
Sequence (C3TDZ2 whole entry): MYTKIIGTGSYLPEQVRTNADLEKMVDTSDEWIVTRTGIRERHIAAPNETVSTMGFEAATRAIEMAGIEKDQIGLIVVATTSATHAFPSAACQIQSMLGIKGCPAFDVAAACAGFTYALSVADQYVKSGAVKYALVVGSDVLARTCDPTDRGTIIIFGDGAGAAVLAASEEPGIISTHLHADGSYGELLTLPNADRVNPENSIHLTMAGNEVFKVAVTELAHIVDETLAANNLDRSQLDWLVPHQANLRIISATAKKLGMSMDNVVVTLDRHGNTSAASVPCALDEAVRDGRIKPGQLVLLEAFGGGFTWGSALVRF
pIC50: −log10 of the molar value.
Measured pIC50, listed per entry.

>>> measured_value("CC(C)=CCC/C(C)=C/CC1(C)SC(=O)C(C)C1=O (centres undefined)")
4.00
>>> measured_value("CC/C=C/CC1(C)SC(=O)C(C)C1=O (centres undefined)")
"< 3.00"
>>> measured_value("CC1C(=O)SC(C)(Cc2cccc(Cl)c2)C1=O (centres undefined)")
"< 3.00"
>>> measured_value("Cc1ccccc1CC1(C)SC(=O)C(C)C1=O (centres undefined)")
"< 3.00"
>>> measured_value("COc1ccc(CC2(C)SC(=O)C(C)C2=O)cc1 (centres undefined)")
"< 3.00"
>>> measured_value("Cc1cc(C)c(CC2(C)SC(=O)C(C)C2=O)c(C)c1 (centres undefined)")
"< 3.00"
>>> measured_value("CCCCCCCCCCCCCCC1(C)SC(=O)C(C)C1=O (centres undefined)")
4.00
>>> measured_value("CC1C(=O)SC(C)(C(C)c2ccccc2)C1=O (centres undefined)")
"< 3.00"

// switching to the query compound
API: value(readout= pIC50, system= 3-oxoacyl-[acyl-carrier-protein] synthase 3 (Escherichia coli), query= COc1cccc(CC2(C)SC(=O)C(C)C2=O)c1 (centres undefined) )
< 3.00
